Target: human GABAB1 and GABAB2 receptor subunits (Homo sapiens, UniProt O75899+Q9UBS5)
Construct: expressed in transfected cells; host or cells: CHO cells
Sequence (Q9UBS5 15-961 limits assumed): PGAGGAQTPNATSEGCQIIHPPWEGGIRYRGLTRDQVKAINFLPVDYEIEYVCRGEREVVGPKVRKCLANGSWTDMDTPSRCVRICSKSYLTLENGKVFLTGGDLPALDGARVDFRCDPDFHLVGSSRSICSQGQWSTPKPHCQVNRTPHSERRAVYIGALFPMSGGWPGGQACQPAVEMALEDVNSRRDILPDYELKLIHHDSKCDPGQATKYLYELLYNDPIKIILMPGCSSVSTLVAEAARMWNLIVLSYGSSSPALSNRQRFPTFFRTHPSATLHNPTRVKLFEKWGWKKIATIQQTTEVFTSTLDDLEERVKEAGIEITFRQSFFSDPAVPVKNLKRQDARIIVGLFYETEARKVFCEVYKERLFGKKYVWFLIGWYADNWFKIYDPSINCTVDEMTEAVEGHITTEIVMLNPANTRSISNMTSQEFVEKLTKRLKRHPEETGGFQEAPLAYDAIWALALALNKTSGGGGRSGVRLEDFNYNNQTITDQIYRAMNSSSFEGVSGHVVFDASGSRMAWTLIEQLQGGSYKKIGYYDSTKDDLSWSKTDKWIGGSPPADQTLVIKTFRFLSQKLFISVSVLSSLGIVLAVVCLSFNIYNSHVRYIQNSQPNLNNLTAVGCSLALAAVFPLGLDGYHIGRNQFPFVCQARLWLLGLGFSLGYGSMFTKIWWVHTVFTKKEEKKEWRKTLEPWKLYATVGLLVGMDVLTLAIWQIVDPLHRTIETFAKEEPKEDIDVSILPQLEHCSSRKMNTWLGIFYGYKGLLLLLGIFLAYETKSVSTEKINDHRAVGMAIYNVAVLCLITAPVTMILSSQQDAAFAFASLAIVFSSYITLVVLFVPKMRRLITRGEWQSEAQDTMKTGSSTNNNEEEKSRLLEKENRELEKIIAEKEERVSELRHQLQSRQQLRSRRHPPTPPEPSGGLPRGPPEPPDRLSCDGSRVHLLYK
Sequence (O75899 42-941): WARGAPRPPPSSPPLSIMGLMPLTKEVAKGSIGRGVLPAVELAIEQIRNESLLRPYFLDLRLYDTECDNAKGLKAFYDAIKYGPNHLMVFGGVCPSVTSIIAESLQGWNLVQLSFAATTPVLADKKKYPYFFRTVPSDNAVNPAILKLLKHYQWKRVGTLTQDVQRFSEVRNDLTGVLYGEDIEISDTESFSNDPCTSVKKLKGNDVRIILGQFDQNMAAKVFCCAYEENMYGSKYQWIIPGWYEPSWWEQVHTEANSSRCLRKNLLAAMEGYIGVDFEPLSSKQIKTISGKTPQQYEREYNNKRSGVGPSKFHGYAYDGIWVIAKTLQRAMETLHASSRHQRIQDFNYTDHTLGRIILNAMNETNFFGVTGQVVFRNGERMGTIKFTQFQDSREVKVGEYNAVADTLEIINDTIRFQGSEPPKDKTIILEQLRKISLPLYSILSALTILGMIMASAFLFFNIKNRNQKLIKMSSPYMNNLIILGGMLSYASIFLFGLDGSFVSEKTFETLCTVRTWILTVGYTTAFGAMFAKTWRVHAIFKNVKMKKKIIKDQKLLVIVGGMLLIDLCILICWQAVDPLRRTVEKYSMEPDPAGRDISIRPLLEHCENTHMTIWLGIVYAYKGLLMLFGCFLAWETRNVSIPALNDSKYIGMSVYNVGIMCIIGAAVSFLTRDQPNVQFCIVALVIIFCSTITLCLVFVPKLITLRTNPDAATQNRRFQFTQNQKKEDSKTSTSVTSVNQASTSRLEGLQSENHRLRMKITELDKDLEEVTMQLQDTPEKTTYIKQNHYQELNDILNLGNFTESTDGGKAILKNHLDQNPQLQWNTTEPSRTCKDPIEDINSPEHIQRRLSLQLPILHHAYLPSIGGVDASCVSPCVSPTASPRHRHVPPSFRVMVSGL
Test: Potentiation of GABA dose-response, FLIPR calcium assay
Format: cell-based
Conditions: compound at 10 μM; EC50 of GABA divided by EC50 of GABA in the presence of positive allosteric modulator
Parameter measured: Potentiation of GABA (fold)

Compound: CC(C)(O)Cn1c(=O)n(Cc2ccc(Br)cc2)c(=O)c2ccc(Cl)c(F)c21
Potentiation of GABA (fold): 60.4

[A] C[C@H](c1ccc(Cl)cc1)n1c(=O)c2ccc(Cl)cc2n(CC(C)(C)O)c1=O
[B] C[C@H](c1ccc(Cl)cc1)n1c(=O)c2ccc(F)cc2n(C)c1=O
[C] COc1c(F)cc2c(=O)n(Cc3ccc(Br)cc3)c(=O)n3c2c1OC(C)(C)C3
[D] CC(C)n1c(=O)n(Cc2ccc(Br)cc2)c(=O)c2ccc(F)cc21
[E] CC(C)(O)Cn1c(=O)n(Cc2ccc(Cl)c(Cl)c2)c(=O)c2ccc(C(F)(F)F)cc21
Asked: Ranking field: Potentiation of GABA (fold); order: falling. Present the labels in the sequence the task asks for.
Given back: C, A, E, B, D

[1] Cn1c(=O)n(C2CCCc3ccccc32)c(=O)c2ccc(C(F)(F)F)cc21 (centres unmarked)
[2] CC1(C)Cn2c(=O)n(Cc3ccc(Br)cc3)c(=O)c3ccc(Cl)c(c32)O1
[3] CC(C)(C)C(=O)Cn1c(=O)n(Cc2ccc(Br)cc2)c(=O)c2ccc(F)cc21
Asked: Sort the 3 compounds by Potentiation of GABA (fold); largest first, smallest last. Respond with an ordered listing of the labels, as requested.
Given back: 1, 2, 3

[a] CC(C)(O)Cn1c(=O)n(Cc2ccc(Br)cc2)c(=O)c2ccc(F)cc21
[b] CC1(C)Cn2c(=O)n(Cc3ccc(Cl)cc3)c(=O)c3ccc(Cl)c(c32)O1
Asked: Given the listed items, does a or b have the lesser reported Potentiation of GABA (fold)? Provide the label of your selected option as the answer.
Given back: b

[P] CC1(Cn2c(=O)n(Cc3ccc(Br)cc3)c(=O)c3cc(F)c(Cl)cc32)COC1
[Q] Cn1c(=O)n(Cc2ccc(Br)cc2)c(=O)c2ccc(Cl)cc21
Asked: Which numeric Potentiation of GABA (fold) is bigger, that of P or that of Q ? Your choice should be expressed through its label.
Given back: P
(P: 22 fold, Q: 1.6 fold)
